Where do the numbers come from? From the supplement of paper PMC9170038.

Test system: MS2 coat protein
Assay: apparent KD of MS2 coat protein; designed switch direction (-1 OFF switch, 1 ON switch): -1; higher = weaker reporter binding
Conditions: input ligand: none
metric: apparent KD of MS2 coat protein
Give your result as the value with the unit written after it.

Your task in this section: give apparent KD of MS2 coat protein for each listed record.
1. AGCAGACGAGGAUAUAGAUUUGAUAACAUGAGGAUCACCCAUGUGAUCGAUAGAUCAGAUUUAGAAGGCGUCUGCU [E5/8-A1] (Eterna round: R97, puzzle: Exclusion 5)
2. AAUUUACAUGAGGAUCACCCAUGUGAGGAUAUAUACAAAGAAGUGUUAGUAAGAAUGUAUAGAAGGCGCGUGAU [JR_Exc1_Sub040] (Eterna round: R97, puzzle: Exclusion 1)
3. CCGGUUGGCGCAGGAUAUACAUGAGGAUCACCCAUGUUCAUGAGGAUCACCCAUGAGGUAAUGAUGUAGAAGGGUGGCCCGGCC [A second MS2 with the first and last base exchanged] (Eterna round: R96, puzzle: Exclusion NG 2)
4. CAUGUGUUAGGAUAUGCACAGAUCUCCUAAUGGAGAUCUGUGCAGAAGGGACAUGAGGAUCACCCAUGUUGAUG [Mod of Brourd 14 - Jieux - Exclusion 4] (Eterna round: R97, puzzle: Exclusion 4)
5. GGGCCGCAAGUAAGGAUAUCCCUUAAAUUGUGAGCGGAGAAGGUACUUGAGGAUCACCCAAGUAUAGAAGAAAA [Arinbear] (Eterna round: R97, puzzle: Brourd's mod of Exclusion 4)
6. UAUGAGUCAGGAUAUUAGUAGUGUGUGGAUACAUAUAUUGCUGAGAAGGGACAUGAGGAUCACCCAUGUAUAAG [JR_Ex4_Sub056] (Eterna round: R97, puzzle: Exclusion 4)
7. CCCGGGUUAGGAUAUUCCUCGUGCAGCUGACAGCCACGGGAGAAGAAGGGACAUGAGGAUCACCCAUGUGAAUA [Eternabot (L2) Solution 47] (Eterna round: R97, puzzle: Exclusion 4)

Output line:
["525 nM", "58.6 nM", "33.6 nM", "48.6 nM", "15.2 nM", "26.1 nM", "32.9 nM"]

Your task in this section: give apparent KD of MS2 coat protein for each listed record.
1. AGGGAACCCAAGGAUAUUGAGAGUUAAGCCACUUAAGAAGGUGGUACAUGAGGAUCACCCAUGUCCCUUGCAGA [Eternabot (L1) Solution 6] (Eterna round: R97, puzzle: Exclusion 6)
2. UAAAUAAAUGUAGGAUAUCUGCACGUGUAGUGCAGAGAAGGACAUGAGGAUCACCCAUGUAUAGUAGCUUCGGCUACAAAUAAU [ENG1-C3] (Eterna round: R96, puzzle: Exclusion NG 1)

Output line:
1. 41.6 nM
2. 88.8 nM

---

Tested on: K4 kissing-loop RNA reporter;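 note: bound reporter read as fluorescence of individual clusters on recovered sequencing chips by microscopy, with normalized cluster intensities fitted with a binding model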
Assay: apparent KD of K4 kissing-loop reporter; higher = weaker reporter binding
Conditions: Eterna round: R107; input ligand: none
Answer each item with its documented apparent KD of K4 kissing-loop reporter.
Give bare numbers, in nM.

// worked examples, apparent KD of K4 kissing-loop reporter included
record sequence | apparent KD of K4 kissing-loop reporter / nM
GGGUUGAGCGGAAGGAGCGGCUGAACCAGUGAUGUUGGUUAAUCCAAGUGAUGUUGGAAAAGCCAGGUAGGUCGCCGCUUUAUCC [Same State Arg B GF 3] | 1180
UAUUAAUUGUCAGGAUAUCGUAAUCGAGUGAUGUUCGAAUAUCGACGAUAGUCGAUAUUAUUUAUACGAGAAGGGACAUUAUUUA [JR_SSFMNB_Sub004] | 417

Now let's try a different one.
The measured apparent KD of K4 kissing-loop reporter associated with GCUAUGGUAGGAAGGAGCGCUUACUCAUUAAUAAGAGUGAUGUUCGAUAAUGAGUAUUUAUAGCAGGUAGGUCGCCUACUAUAGC [Arginine B K4 3] reads 270
